These data points were gathered from patent EP2197279B1.

# Test system: A2780/DX5 cells
# EXPERIMENTAL DETAILS: Sulforhodamine B (SRB) cytotoxicity assay in A2780/DX5 cells
# Assay type: cell-based
# CONDITION SET: A2780/DX5 versus A2780/WT
# Experimental: Each of the testing conditions used in this study in both A2780/WT (wild-type) and A2780/DX5 cells were repeated in five to fifteen experiments that were performed on separate days. […] The sulforhodamine B (SRB) assay was used to assess cytotoxicity and absorbance at 570 nm (A570) in order to calculate the percentage of cell control (or percent cell survival) for the various treatment conditions in the plate wells. […]
Readings of IC50 Ratio for the listed molecules

{"columns": ["MOLECULE", "SUBJECT OF TEST", "IC50 Ratio"],
 "data": [
  ["CC[C@@]1(O)C(=O)OCc2c1cc1n(c2=O)Cc2c-1nc1ccc(OCOC)cc1c2CC[Si](C)(C)C", "A2780/DX5 cells", 1.5],
  ["CC[C@@]1(O)C(=O)OCc2c1cc1n(c2=O)Cc2c-1nc1ccc(OC(=O)N(C)C)cc1c2CC[Si](C)(C)C", "A2780/DX5 cells", 1.1],
  ["CC[C@@]1(O)C(=O)OCc2c1cc1n(c2=O)Cc2c-1nc1ccc(OC(=S)N(C)C)cc1c2CC[Si](C)(C)C", "A2780/DX5 cells", 2.0],
  ["CCOc1ccc2nc3c(c(CC[Si](C)(C)C)c2c1)C(O)n1c-3cc2c(c1=O)COC(=O)[C@]2(O)CC (stereo partly drawn)", "A2780/DX5 cells", 1.1],
  ["CC[C@@]1(O)C(=O)OCc2c1cc1n(c2=O)Cc2c-1nc1ccc(OC)cc1c2CC[Si](C)(C)C", "A2780/DX5 cells", 1.3],
  ["CC[C@@]1(O)C(=O)OCc2c1cc1n(c2=O)Cc2c-1nc1ccc(OCC#N)cc1c2CC[Si](C)(C)C", "A2780/DX5 cells", 2.0]
]}
